Hello, the source for this data is PubChem BioAssay (EPA / NIEHS), in case you need it.

Read-out: urokinase plasminogen activator (uPA), PLAU (gene 5328)
Test: BSK_KF3CT_uPA: BioMAP Diversity Plus: KF3CT Assay for urokinase plasminogen activator (uPA) Biomarker Activity (AID 2283075)
Details: primary human keratinocytes with fibroblasts; actives raise or lower the signal
Calls of active or inactive are those of the source. Rule for the calls: active = hit-call score of the fitted dose curve at least 0.9, where 1 is the maximum; inactive = score below 0.9.
Possible outcomes: active, inactive

| Molecule smiles | Discrete label |
| --- | --- |
| Cc1ccc(N(C)C)cc1 | inactive |
| C=CCOC(=O)c1ccccc1C(=O)OCC=C | inactive |
| Cc1oc(-c2ccccc2)nc1CCOc1cccc2c1ccn2CCC(=O)O | inactive |
| O=c1c(O)c(-c2ccc(O)c(O)c2)oc2cc(O)cc(O)c12 | active |
| NCC1(Cc2noc(=O)[nH]2)CCCCC1 | inactive |
| O=c1[nH]cc(F)c(=O)[nH]1 | inactive |
| Cc1cc(NC(=O)C(=O)O)cc(C)c1Oc1ccc(O)c2c1CCC2 | inactive |
| O=[N+]([O-])C(CO)(CO)CO | inactive |
| c1cc(-c2ccncc2)ccn1 | inactive |
| Cc1ccc(Cl)cc1 | inactive |
| CCCCCCC(=O)OCC | inactive |
| CCCCCCCCCCCCCCCCCC(=O)O | inactive |
| CCCCCC(=O)O | inactive |
| Nc1nc(N)c2nc(CNc3ccc(C(=O)N[C@@H](CCC(=O)O)C(=O)O)cc3)cnc2n1 | inactive |
| COc1cc(-c2nc(NC(=O)c3cc4cc(C)cc(C)c4n3CC(=O)O)sc2CCC2CCCCC2)c(OC)cc1Cl | active |
| CCOC(=O)CCC(=O)OCC | inactive |
| O=C(N[C@@H](Cc1ccccc1)[C@@H](O)C(=O)N1C[C@@H](O)[C@@H](O)C1)c1cc2cc(Cl)ccc2[nH]1 | inactive |
| COc1cc(C=O)ccc1O | inactive |
| Oc1ccc2c(c1)OC[C@@H](N1CCC(O)(c3ccc(F)cc3)CC1)[C@H]2O | inactive |
| CCc1c(C(=O)NN2CCCCC2)nn(-c2ccc(Cl)cc2Cl)c1-c1ccc(Br)cc1 | active |
| CC1=C(/C=C/C(C)=C/C=C/C(C)=C/CO)C(C)(C)CCC1 | inactive |
| CN[C@H]1CC[C@@H](c2ccc(Cl)c(Cl)c2)c2ccc(S(N)(=O)=O)cc21 | active |
| NS(=O)(=O)c1cc2c(cc1Cl)NCNS2(=O)=O | inactive |
| FC(F)(F)C(F)(F)C(F)(F)C(F)(F)C(F)(F)C(F)(F)CCI | inactive |
| Cc1cccc([N+](=O)[O-])c1C | inactive |

###

Test: CCTE_Deisenroth_AIME_384WELL_CTox_Inactive: Cytotoxicity Assessment (CTOX) in CCTE's 384-well Estrogen Receptor Transactivation Assay without AIME metabolic competence (metabolism negative), Deisenroth Lab (AID 2284039);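 note: cell viability via live-cell protease substrate cleaved to fluorescent probe; cells exposed 24 h to medium preincubated 2 h with alginate-water beads without S9; loss of fluorescence signal means loss of viability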
Results filed as inconclusive are left out. Activity calls are given as the source filed them. How the source made its calls: active means hit-call score of the fitted dose curve at least 0.9, where 1 is the maximum; inconclusive means response in the unintended direction; inactive means score below 0.9.
Outcomes: y (active), n (inactive)

| Molecule smiles | Discrete label |
| --- | --- |
| Cc1ccc(N(C)C)cc1 | n |
| CCNc1cccc(C)c1 | n |
| O=c1c(O)c(-c2ccc(O)c(O)c2)oc2cc(O)cc(O)c12 | y |
| O=c1[nH]cc(F)c(=O)[nH]1 | n |
| C[C@]12C=CC(=O)C=C1CC[C@@H]1[C@@H]2C(=O)C[C@@]2(C)[C@H]1CC[C@]2(O)C(=O)CO | n |
| CC1(C)NC(=O)NC1=O | n |
| C[Si]1(C)O[Si](C)(C)O[Si](C)(C)O[Si](C)(C)O1 | n |
| Cc1cc(=O)[nH]c(=S)[nH]1 | n |
| CCCc1cc(=O)[nH]c(=S)[nH]1 | n |
| C=CCc1ccc(O)c(OC)c1 | n |
| CC1=C(/C=C/C(C)=C/C=C/C(C)=C/CO)C(C)(C)CCC1 | n |
| NCCO | n |
| COCCOCCOC | n |
| CCOc1ccc2c(c1)C(C)=CC(C)(C)N2 | n |
| CCCCCCCCCCCCCCCCCC(=O)O | n |
| CNCc1cc(F)ccc1Oc1ccc(Cl)c(Cl)c1 | y |

###

Read-out: Vascular endothelial growth factor receptor 2 (Homo sapiens)
Experiment: BSK_4H_VEGFRII: BioMAP Diversity Plus: 4H Assay for Vascular endothelial growth factor receptor 2 (VEGFR2) Biomarker Activity (AID 2283031)
Conditions: primary human endothelial cells (HUVEC); actives raise or lower the signal
Active and inactive are the calls of the source. The calls were made as follows: active = hit-call score of the fitted dose curve at least 0.9, where 1 is the maximum; inactive = score below 0.9.
Outcomes: YES (active), NO (inactive)

| Compound | Discrete label |
| --- | --- |
| c1cc(-c2ccncc2)ccn1 | NO |
| CC1(C)NC(=O)NC1=O | NO |
| Cc1ccc2ncccc2c1 | NO |
| C[C@]12C=CC(=O)C=C1CC[C@@H]1[C@@H]2C(=O)C[C@@]2(C)[C@H]1CC[C@]2(O)C(=O)CO | NO |
| COCCOC[C@H](CC1(C(=O)NC2CCC(C(=O)O)CC2)CCCC1)C(=O)Oc1ccc2c(c1)CCC2 (stereo partly specified) | NO |
| CN1CCN(Cc2cc(-c3ccc4[nH]c(=O)oc4c3)co2)[C@@H](c2ccc(F)cc2)C1 | NO |
| COc1cc(-c2nc(NC(=O)c3cc4cc(C)cc(C)c4n3CC(=O)O)sc2CCC2CCCCC2)c(OC)cc1Cl | YES |
| CCOc1ccc2c(c1)C(C)=CC(C)(C)N2 | NO |
| Cc1ccc(C)c(O)c1C | NO |
| CNCc1cc(F)ccc1Oc1ccc(Cl)c(Cl)c1 | NO |
| CCOC(=O)CCC(=O)OCC | NO |
| O=C(OCCCCCOC(=O)c1ccccc1)c1ccccc1 | NO |
| COc1cc(S(=O)(=O)O)c(C)cc1N=Nc1c(O)ccc2cc(S(=O)(=O)O)ccc12 | NO |
| Cc1ccc(N(C)C)cc1 | NO |
| Cc1cccc([N+](=O)[O-])c1C | NO |
| CC(=O)OC/C=C(\C)CCC=C(C)C | NO |
| NC(=O)Cn1c(=O)cc(CCN2CCN(c3nccc4sccc34)CC2)c2ccc(F)cc21 | NO |
| Nc1nc(N)c2nc(CNc3ccc(C(=O)N[C@@H](CCC(=O)O)C(=O)O)cc3)cnc2n1 | NO |
| O=C(N[C@@H](Cc1ccccc1)[C@@H](O)C(=O)N1C[C@@H](O)[C@@H](O)C1)c1cc2cc(Cl)ccc2[nH]1 | NO |
| NCC1(Cc2noc(=O)[nH]2)CCCCC1 | NO |
| NS(=O)(=O)c1cc2c(cc1Cl)NCNS2(=O)=O | NO |

###

Read-out: Glutathione S-Transferase (GSTA2), GSTA2 (gene 2939)
Assay: LTEA_HepaRG_GSTA2: Life Technologies and Expression Analysis (LTEA) Assay for Glutathione S-Transferase (GSTA2) using HepaRG (AID 2283497)
Settings: mRNA level, 48 h; actives raise or lower the signal
Active and inactive are the calls of the source. The calls were made as follows: active = hit-call score of the fitted dose curve at least 0.9, where 1 is the maximum; inactive = score below 0.9.

| Compound | AC50 |
| --- | --- |
| Cc1ccccc1Cl | inactive |
| CCCCCCCCCCCCCCCCCC(=O)O | inactive |
| CC1(C)CC(N=C=O)CC(C)(CN=C=O)C1 (centres undefined) | inactive |
| CC(CO)OC(C)CO (centres undefined) (tested in a mixture with another compound) | inactive |
| Cc1cc(NC(=O)C(=O)O)cc(C)c1Oc1ccc(O)c2c1CCC2 | 75.6 µM (active) |
| C=CCc1ccc(O)c(OC)c1 | inactive |
| CCCCCCCCCCCC(=O)OC | inactive |
| Nc1nc(N)c2nc(CNc3ccc(C(=O)N[C@@H](CCC(=O)O)C(=O)O)cc3)cnc2n1 | 0.12 µM (active) |
| COCCOC[C@H](CC1(C(=O)NC2CCC(C(=O)O)CC2)CCCC1)C(=O)Oc1ccc2c(c1)CCC2 (some centres undefined) | inactive |

###

Read-out: Pselectin, SELP (gene 6403)
Test: BSK_4H_Pselectin: BioMAP Diversity Plus: 4H Assay for Pselectin Biomarker Activity (AID 2283026)
Settings: primary human endothelial cells (HUVEC); actives raise or lower the signal
Active and inactive are the calls of the source. The calls were made as follows: active = hit-call score of the fitted dose curve at least 0.9, where 1 is the maximum; inactive = score below 0.9.
Outcomes: 1 (yes) (active), 0 (no) (inactive)

| Molecule | Discrete label |
| --- | --- |
| O=C(N[C@@H](Cc1ccccc1)[C@@H](O)C(=O)N1C[C@@H](O)[C@@H](O)C1)c1cc2cc(Cl)ccc2[nH]1 | 0 (no) |
| CC=Cc1ccc(O)c(OC)c1 | 0 (no) |
| CC1(C)NC(=O)NC1=O | 0 (no) |
| CCc1c(C(=O)NN2CCCCC2)nn(-c2ccc(Cl)cc2Cl)c1-c1ccc(Br)cc1 | 1 (yes) |
| NCCO | 0 (no) |
| CCCCCC(=O)O | 0 (no) |
| COc1ccc2c(c1)c(CC(=O)O)c(C)n2C(=O)c1ccc(Cl)cc1 | 0 (no) |
| CCCCCCCCCCCCCO | 1 (yes) |
| CC1(C)CC(N=C=O)CC(C)(CN=C=O)C1 (centres undefined) | 0 (no) |
| COc1cc(-c2nc(NC(=O)c3cc4cc(C)cc(C)c4n3CC(=O)O)sc2CCC2CCCCC2)c(OC)cc1Cl | 1 (yes) |
| Cc1ccccc1Cl | 0 (no) |
| CCNc1cccc(C)c1 | 0 (no) |
| Cc1ccc(C)c(C)c1 | 0 (no) |
| CCCCCCCCCCO | 0 (no) |
